# System: Escherichia coli TOP10
# Experiment: shrunken log2 fold change of peptide-encoding DNA abundance (4.5 h post-induction vs induction); higher = less antimicrobial activity (less host growth inhibition)
# Measurement Context: time post-induction: 4.5 h; library: site-saturation at positions 5, 18, 19, 20
Please go through the items and note down their shrunken log2 fold change.
One number for each entry.

Reference set (5 entries):
> print(dat)
               biosequence         target.of.assay  test.value
1  RRIRTRPPRLPRPRPRPKCLPRP  Escherichia coli TOP10     -0.0528
2  RRIRLRPPRLPRPRPRPYATPRP  Escherichia coli TOP10      -0.246
3  RRIRERPPRLPRPRPRPQYEPRP  Escherichia coli TOP10      -0.624
4  RRIRVRPPRLPRPRPRPEMRPRP  Escherichia coli TOP10       0.562
5  RRIRCRPPRLPRPRPRPTFIPRP  Escherichia coli TOP10      -0.307

Hi there! I need shrunken log2 fold change for each item below, if you can.
1. RRIRCRPPRLPRPRPRPFISPRP
2. RRIRMRPPRLPRPRPRPAVGPRP
3. RRIRCRPPRLPRPRPRPHRMPRP
4. RRIRRRPPRLPRPRPRPAIEPRP
5. RRIRKRPPRLPRPRPRPGNDPRP
6. RRIRSRPPRLPRPRPRPWTCPRP
7. RRIRCRPPRLPRPRPRPEYVPRP
8. RRIRERPPRLPRPRPRPERQPRP

-0.689
0.5
-0.401
0.109
0.054
0.00516
-0.244
-0.0184

Record RRIRWRPPRLPRPRPRPRAAPRP . Reported shrunken log2 fold change: 1.04

----------
# Test system: Escherichia coli TOP10
# Experiment: shrunken log2 fold change of peptide-encoding DNA abundance (4.5 h post-induction vs induction); higher = less antimicrobial activity (less host growth inhibition)
# Measurement Context: time post-induction: 4.5 h; library: site-saturation at positions 5, 18, 19, 20
Test Readout: shrunken log2 fold change
One number for each entry.

Here is how some sequences turned out for shrunken log2 fold change.
> print(dat)
               biosequence  test.value
1  RRIRRRPPRLPRPRPRPVKVPRP        -0.1
2  RRIRMRPPRLPRPRPRPGFAPRP        1.35
3  RRIRERPPRLPRPRPRPYCCPRP      -0.899
4  RRIRCRPPRLPRPRPRPWIGPRP      -0.775

Entry under test: RRIRRRPPRLPRPRPRPVHYPRP . Its shrunken log2 fold change was 0.0593

----------
Please go through the items and note down their shrunken log2 fold change.
# Tested on: Escherichia coli TOP10;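 further: peptides expressed intracellularly from a pBAD plasmid library in pooled LB shake-flask culture, induced with 0.3% L-arabinose, DNA abundance read by NGS, three biological replicates, DESeq2 with apeglm shrinkage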
# Experiment: shrunken log2 fold change of peptide-encoding DNA abundance (4.5 h post-induction vs induction); higher = less antimicrobial activity (less host growth inhibition)
# Measurement Context: time post-induction: 4.5 h; library: site-saturation at positions 5, 18, 19, 20
One number for each entry.

Recorded results for 5 sequences are shown here.
> print(dat)
               biosequence  test.value
1  RRIRRRPPRLPRPRPRPMLRPRP       0.854
2  RRIRARPPRLPRPRPRPYACPRP      -0.217
3  RRIRTRPPRLPRPRPRPMRLPRP     -0.0194
4  RRIRNRPPRLPRPRPRPLMVPRP      -0.254
5  RRIRRRPPRLPRPRPRPVPKPRP       0.234

Dear colleague, could you please provide shrunken log2 fold change for the sequences listed below?
1. RRIRIRPPRLPRPRPRPESTPRP
2. RRIRKRPPRLPRPRPRPINYPRP

1. -0.325
2. -0.0959
